The values you see were collected from ChEMBL document CHEMBL1275437.

tested on: Streptococcus pneumoniae; assay: Antibacterial activity against Streptococcus pneumoniae serotype 19A assessed as percent susceptible isolates by broth microdilution method; assay type: functional
Response field label: string, one of label 1 (percent susceptible isolates strictly below 50%) or label 0.

molecule	answer_label
CC[C@H]1OC(=O)[C@H](C)C(=O)[C@H](C)[C@@H](O[C@@H]2O[C@H](C)C[C@H](N(C)C)[C@H]2O)[C@](C)(OC)C[C@@H](C)C(=O)[C@H](C)[C@H]2N(CCCCn3cnc(-c4cccnc4)c3)C(=O)O[C@]12C	label 0
C[C@H]1COc2c(N3CCN(C)CC3)c(F)cc3c(=O)c(C(=O)O)cn1c23.C[C@H]1COc2c(N3CCN(C)CC3)c(F)cc3c(=O)c(C(=O)O)cn1c23.O	label 0
CC1(C)S[C@@H]2[C@H](NC(=O)Cc3ccccc3)C(=O)N2[C@H]1C(=O)O	label 1
CC[C@H]1OC(=O)[C@H](C)[C@@H](O[C@H]2C[C@@](C)(OC)[C@@H](O)[C@H](C)O2)[C@H](C)[C@@H](O[C@@H]2O[C@H](C)C[C@H](N(C)C)[C@H]2O)[C@](C)(O)C[C@@H](C)CN(C)[C@H](C)[C@@H](O)[C@]1(C)O	label 1
CO/N=C(\C(=O)N[C@@H]1C(=O)N2C(C(=O)OC(C)OC(C)=O)=C(COC(N)=O)CS[C@H]12)c1ccco1 (stereo partly specified)	label 1
C=CC1=C(C(=O)O)N2C(=O)[C@@H](NC(=O)/C(=N\O)c3csc(N)n3)[C@H]2SC1	label 1
